Measured protein stability index, listed per entry for reference.
Tested on: Saccharomyces cerevisiae
Experiment: protein stability index of tFT-peptide fusion (C-terminal peptide) (PSI (0-1 scale)); higher = more stable (slower turnover)
Conditions: genetic background: wild type; temperature: 30 C

For orientation, consider the following solved cases.
{"columns": ["Ordered residues", "Val"],
 "data": [
  ["SEEEEEEEWKGF [RRP1 C-terminal 12 aa]", 0.673],
  ["TFTLAVTPYPAF [YLL066W-B C-terminal 12 aa]", 0.685]
]}

--- query ---
Identify protein stability index associated with the sequence KKGLLHKLKKKL [IST2 C-terminal 12 aa] 0.668

====

Tested on: Saccharomyces cerevisiae
Assay: protein stability index of tFT-peptide fusion (C-terminal peptide) (PSI (0-1 scale)); higher = more stable (slower turnover)
Conditions: genetic background: wild type; temperature: 30 C
Measured protein stability index, listed per entry for reference.
Quick one: just the number, no unit, thanks!

For orientation, consider the following solved cases.
{"columns": ["Ordered residues", "Parameter measured", "Val"],
 "data": [
  ["PSPAPPSPPSPP", "protein stability index", 0.679],
  ["GRDCSSHFIVPL", "protein stability index", 0.713],
  ["PTLHVGPGTPHA", "protein stability index", 0.705]
]}

Identify protein stability index associated with the sequence PPYSLLFHPFPF 0.699

Identify protein stability index associated with the sequence AVGGGVVGQGWV 0.604

Identify protein stability index associated with the sequence PGAFLRLSPPRA 0.702

Identify protein stability index associated with the sequence PLVVETNRFGDV 0.699

Identify protein stability index associated with the sequence GCELVISCAHPV 0.695

Identify protein stability index associated with the sequence PLPAPAPSPPSP 0.695

====

System: Saccharomyces cerevisiae
Assay: protein stability index of tFT-peptide fusion (C-terminal peptide) (PSI (0-1 scale)); higher = more stable (slower turnover)
Conditions: genetic background: cdc53-1; temperature: 37 C
Parameter measured: protein stability index

{"columns": ["Ordered residues", "protein stability index"],
 "data": [
  ["VYRRKLDRLLCI", 0.615],
  ["FCCWCVCFGYSG", 0.604],
  ["ARSGGYLMVVLV", 0.599]
]}

Identify protein stability index associated with the sequence SFWLFSSIGVCF 0.596

====

System: Saccharomyces cerevisiae
Experiment: protein stability index of tFT-peptide fusion (C-terminal peptide) (PSI (0-1 scale)); higher = more stable (slower turnover)
Settings: genetic background: wild type; temperature: 30 C
Parameter measured: protein stability index
Quick one: just the number, no unit, thanks!

For orientation, consider the following solved cases.
{"columns": ["Ordered residues", "protein stability index"],
 "data": [
  ["LLGAITALFGLI [PLB2 C-terminal 12 aa]", 0.658],
  ["KVIRGKGFKLPK [ERD2 C-terminal 12 aa]", 0.667]
]}

--- query ---
Identify protein stability index associated with the sequence DLEMEVIAVEKN [MMF1 C-terminal 12 aa] 0.674

====

Measured protein stability index, listed per entry for reference.
Test system: Saccharomyces cerevisiae
Assay: protein stability index of tFT-peptide fusion (C-terminal peptide) (PSI (0-1 scale)); higher = more stable (slower turnover)
Settings: genetic background: wild type; temperature: 30 C
Quick one: just the number, no unit, thanks!

{"columns": ["Ordered residues", "Parameter measured", "Val"],
 "data": [
  ["GVCGGGGGWGVA", "protein stability index", 0.683]
]}

--- query ---
Give protein stability index only, for VGKVRGLEAVEE , using Saccharomyces cerevisiae data. 0.683
